bioavailability reference
assay: Oral bioavailability in Sprague-Dawley rat at 2 mg/kg; format: ADME, organism-based; conditions: in vivo
State the answer as a number, implicitly in %.

Observe how each entry below is paired with its result.
Compound Structure	bioavailability (%)
COC(=O)N[C@H](C(=O)N1CCC[C@H]1c1ncc(-c2ccc(-c3ccc(-c4ccc5nc([C@@H]6CCCN6C(=O)[C@@H](NC(=O)OC)C(C)C)[nH]c5c4)cc3)cc2)[nH]1)C(C)C	11.5
COC(=O)N[C@H](C(=O)N1CCC[C@H]1c1ncc(-c2ccc(-c3ccc(-c4ccc5nc([C@@H]6[C@H]7CC[C@H](C7)N6C(=O)[C@@H](NC(=O)OC)C(C)C)[nH]c5c4)cc3)cc2)[nH]1)C(C)C	26.3
COC(=O)N[C@H](C(=O)N1CC2(CC2)C[C@H]1c1nc(-c2ccc3c(c2)C(F)(F)c2cc(-c4ccc5[nH]c([C@@H]6[C@H]7CC[C@H](C7)N6C(=O)[C@@H](NC(=O)OC)C(C)C)nc5c4)ccc2-3)c[nH]1)C(C)C	32.5
COC(=O)N[C@H](C(=O)N1CCC[C@H]1c1ncc(-c2ccc(-c3ccc(-c4cnc([C@@H]5[C@H]6CC[C@H](C6)N5C(=O)[C@@H](NC(=O)OC)C(C)C)[nH]4)cc3)cc2)[nH]1)C(C)C	35.2

Query compound follows.
Any idea what its bioavailability is? The compound is "COC(=O)N[C@H](C(=O)N1CCC[C@H]1c1ncc(-c2ccc3c(c2)C(F)(F)c2cc(-c4ccc5nc([C@@H]6CCCN6C(=O)[C@@H](NC(=O)OC)C(C)C)[nH]c5c4)ccc2-3)[nH]1)C(C)C"
36.7

---

experiment: Mean residence time in cynomolgus monkey at 0.5 mg/kg, iv; format: ADME, organism-based, Macaca fascicularis; set-up: dose 0.5 mg/kg, route intravenous; conditions: in vivo
Readout: MRT
// unit must come after the numeric part

Any idea what its MRT is? The molecule is "COC(=O)N[C@H](C(=O)N1CC2(CC2)C[C@H]1c1nc(-c2ccc3c(c2)C(F)(F)c2cc(-c4ccc5[nH]c([C@@H]6[C@H]7CC[C@H](C7)N6C(=O)[C@@H](NC(=O)OC)C(C)C)nc5c4)ccc2-3)c[nH]1)C(C)C"
12.9 h

---

assay: Volume of distribution at steady state in cynomolgus monkey at 0.5 mg/kg, iv; format: ADME, organism-based, Macaca fascicularis; set-up: dose 0.5 mg/kg, route intravenous; conditions: in vivo, read-out: Vdss
Readout: Vd (L/kg)
State the answer as a number, implicitly in L/kg.

Any idea what its Vd is? The compound is "COC(=O)N[C@H](C(=O)N1CC2(CC2)C[C@H]1c1nc(-c2ccc3c(c2)C(F)(F)c2cc(-c4ccc5[nH]c([C@@H]6[C@H]7CC[C@H](C7)N6C(=O)[C@@H](NC(=O)OC)C(C)C)nc5c4)ccc2-3)c[nH]1)C(C)C"
2.15

---

half-life reference
experiment: Half life in Sprague-Dawley rat at 1 mg/kg, iv; type: ADME, organism-based; set-up: dose 1 mg/kg, route intravenous; settings: in vivo
State the answer as a number, implicitly in min.

Observe how each entry below is paired with its result.
Compound Structure	Unit Of Measure	half-life
COC(=O)N[C@H](C(=O)N1CC2(CC2)C[C@H]1c1nc(-c2ccc3c(c2)C(F)(F)c2cc(-c4ccc5[nH]c([C@@H]6[C@H]7CC[C@H](C7)N6C(=O)[C@@H](NC(=O)OC)C(C)C)nc5c4)ccc2-3)c[nH]1)C(C)C	min	280
COC(=O)N[C@H](C(=O)N1CCC[C@H]1c1ncc(-c2ccc(-c3ccc(-c4cnc([C@@H]5[C@H]6CC[C@H](C6)N5C(=O)[C@@H](NC(=O)OC)C(C)C)[nH]4)cc3)cc2)[nH]1)C(C)C	min	89.4
COC(=O)N[C@H](C(=O)N1CCC[C@H]1c1ncc(-c2ccc(-c3ccc(-c4ccc5nc([C@@H]6[C@H]7CC[C@H](C7)N6C(=O)[C@@H](NC(=O)OC)C(C)C)[nH]c5c4)cc3)cc2)[nH]1)C(C)C	min	124
COC(=O)N[C@H](C(=O)N1CCC[C@H]1c1ncc(-c2ccc(-c3ccc(-c4ccc5nc([C@@H]6CCCN6C(=O)[C@@H](NC(=O)OC)C(C)C)[nH]c5c4)cc3)cc2)[nH]1)C(C)C	min	94.2

Query compound follows.
Any idea what its half-life is? The compound is "COC(=O)N[C@H](C(=O)N1CCC[C@H]1c1ncc(-c2ccc3c(c2)C(F)(F)c2cc(-c4ccc5nc([C@@H]6CCCN6C(=O)[C@@H](NC(=O)OC)C(C)C)[nH]c5c4)ccc2-3)[nH]1)C(C)C"
110

---

test: Clearance in Sprague-Dawley rat at 1 mg/kg, iv; format: ADME, organism-based; design: dose 1 mg/kg, route intravenous; conditions: in vivo
Mark Not met for clearance values under 10 mL/min/kg, and Met for everything at or above.

Compound Structure	Category Label
COC(=O)N[C@H](C(=O)N1CCC[C@H]1c1ncc(-c2ccc(-c3ccc(-c4cnc([C@@H]5[C@H]6CC[C@H](C6)N5C(=O)[C@@H](NC(=O)OC)C(C)C)[nH]4)cc3)cc2)[nH]1)C(C)C	Met
COC(=O)N[C@H](C(=O)N1CCC[C@H]1c1ncc(-c2ccc3c(c2)C(F)(F)c2cc(-c4ccc5nc([C@@H]6CCCN6C(=O)[C@@H](NC(=O)OC)C(C)C)[nH]c5c4)ccc2-3)[nH]1)C(C)C	Not met
COC(=O)N[C@H](C(=O)N1CCC[C@H]1c1ncc(-c2ccc(-c3ccc(-c4ccc5nc([C@@H]6CCCN6C(=O)[C@@H](NC(=O)OC)C(C)C)[nH]c5c4)cc3)cc2)[nH]1)C(C)C	Met
COC(=O)N[C@H](C(=O)N1CC2(CC2)C[C@H]1c1nc(-c2ccc3c(c2)C(F)(F)c2cc(-c4ccc5[nH]c([C@@H]6[C@H]7CC[C@H](C7)N6C(=O)[C@@H](NC(=O)OC)C(C)C)nc5c4)ccc2-3)c[nH]1)C(C)C	Not met

Proceed to the following item.
Could you please find out whether "COC(=O)N[C@H](C(=O)N1CCC[C@H]1c1ncc(-c2ccc(-c3ccc(-c4ccc5nc([C@@H]6[C@H]7CC[C@H](C7)N6C(=O)[C@@H](NC(=O)OC)C(C)C)[nH]c5c4)cc3)cc2)[nH]1)C(C)C" has clearance that meets 10 mL/min/kg or exceeds it?
Met

---

experiment: Metabolic stability in Sprague-Dawley rat liver microsomes assessed as hepatic extraction at 3 uM after 60 mins by LC/MS/MS analysis; assay type: ADME; conditions: read-out: ERH
Readout: hepatic extraction ratio at 1 h, 3 µM

Any idea what its hepatic extraction ratio at 1 h, 3 µM is? The compound is "COC(=O)N[C@H](C(=O)N1CC2(CC2)C[C@H]1c1nc(-c2ccc3c(c2)C(F)(F)c2cc(-c4ccc5[nH]c([C@@H]6[C@H]7CC[C@H](C7)N6C(=O)[C@@H](NC(=O)OC)C(C)C)nc5c4)ccc2-3)c[nH]1)C(C)C"
< 0.092

---

assay: AUC (infinity) in fasted healthy human at 100 mg/kg, po; format: ADME, organism-based; design: time infinity, dose 100 mg/kg, route oral; details: plasma
Readout: AUC(0-inf) (µM·h)
State the answer as a number, implicitly in µM·h.

Any idea what its AUC(0-inf) is? The compound is "COC(=O)N[C@H](C(=O)N1CC2(CC2)C[C@H]1c1nc(-c2ccc3c(c2)C(F)(F)c2cc(-c4ccc5[nH]c([C@@H]6[C@H]7CC[C@H](C7)N6C(=O)[C@@H](NC(=O)OC)C(C)C)nc5c4)ccc2-3)c[nH]1)C(C)C"
8.66

---

test: Clearance in cynomolgus monkey at 0.5 mg/kg, iv; type: ADME, organism-based, Macaca fascicularis; set-up: dose 0.5 mg/kg, route intravenous; settings: in vivo
Readout: clearance (mL/min/kg)
State the answer as a number, implicitly in mL/min/kg.

Any idea what its clearance is? The compound is "COC(=O)N[C@H](C(=O)N1CC2(CC2)C[C@H]1c1nc(-c2ccc3c(c2)C(F)(F)c2cc(-c4ccc5[nH]c([C@@H]6[C@H]7CC[C@H](C7)N6C(=O)[C@@H](NC(=O)OC)C(C)C)nc5c4)ccc2-3)c[nH]1)C(C)C"
2.83

---

test: AUC (infinity) in fasted healthy human at 10 mg/kg, po; assay type: ADME, organism-based; design: time infinity, dose 10 mg/kg, route oral; settings: plasma
Readout: AUC(0-inf) (µM·h)
State the answer as a number, implicitly in µM·h.

Any idea what its AUC(0-inf) is? The compound is "COC(=O)N[C@H](C(=O)N1CC2(CC2)C[C@H]1c1nc(-c2ccc3c(c2)C(F)(F)c2cc(-c4ccc5[nH]c([C@@H]6[C@H]7CC[C@H](C7)N6C(=O)[C@@H](NC(=O)OC)C(C)C)nc5c4)ccc2-3)c[nH]1)C(C)C"
0.695
